Data origin: patent US10793563B2

Dear all, this message contains IC50 results, target or system GCN2 kinase (Homo sapiens (Human), UniProt Q9P2K8).

C[C@H]1[C@@H](c2cn[nH]c2)N(CC2(C)COC2)CCN1c1ccnc(-c2cnc3ccc(C(F)(F)F)cn23)n1 ... < 10 nM
C[C@H]1CN(c2nccc(-c3cnc4ccc(C(F)(F)F)cn34)n2)CC(c2cc[nH]n2)O1 (stereo in doubt) ... 10 to 100 nM
NC(=O)C1CN(c2ccnc(-c3cnc4ccc(C(F)(F)F)cn34)n2)CCN1C1CC1 (stereo not shown) ... 10 to 100 nM
C[C@H]1[C@@H](CNS(C)(=O)=O)N(C2CC2)CCN1c1nccc(-c2cnc3ccc(C(F)(F)F)cn23)n1 ... 100 to 1000 nM
C[C@H]1C[C@@H](N=S(C)(C)=O)CN(c2ccnc(-c3cnc4ccc(C(F)(F)F)cn34)n2)C1 (stereo in doubt) ... 10 to 100 nM

Q: Notebook: pull reported IC50 for GCN2 kinase (Homo sapiens (Human), UniProt Q9P2K8), entry NC(=O)[C@@H]1CN(c2ccnc(-c3cnc4ccc(Cl)cn34)n2)CCN1C1CC1
Result: 100 to 1000 nM

Q: Value wanted: IC50 (GCN2 kinase (Homo sapiens (Human), UniProt Q9P2K8)) of entry CCOC1(N2CCN(c3ccnc(-c4cnc5ccc(C(F)(F)F)cn45)n3)C(C)C2c2cn[nH]c2)CC1 (stereo not shown)
Result: 10 to 100 nM

Q: Item: Cc1oncc1[C@H]1CN(c2ccnc(-c3cnc4ccc(C(F)(F)F)cn34)n2)C[C@@H](C)O1 Test system: GCN2 kinase (Homo sapiens (Human), UniProt Q9P2K8) Read-out: IC50 Value: ?
Result: 100 to 1000 nM

Q: # query: IC50 | item C[C@H](NS(C)(=O)=O)[C@@H]1[C@H](C)N(c2ccnc(-c3cnc4ccc(C(F)(F)F)cn34)n2)CCN1C1CC1 | system: GCN2 kinase (Homo sapiens (Human), UniProt Q9P2K8)
Result: 100 to 1000 nM

Q: Given the entry CC(C)(C)OC(=O)N1CC2(C1)CN(c1ccnc(-c3cnc4ccc(C(F)(F)F)cn34)n1)CC(C)(C)O2 , what IC50 was observed with GCN2 kinase (Homo sapiens (Human), UniProt Q9P2K8)?
Result: 100 to 1000 nM

Q: Hi! What's the reported IC50 for Cc1noc(C)c1C(=O)N1CCN(c2ccnc(-c3cnc4ccc(C(F)(F)F)cn34)n2)CC1c1cn[nH]c1 (stereo not shown) on GCN2 kinase (Homo sapiens (Human), UniProt Q9P2K8)?
Result: 100 to 1000 nM

Q: Find IC50 (GCN2 kinase (Homo sapiens (Human), UniProt Q9P2K8)) for the entry O=C(O)C1CN(c2ccnc(-c3cnc4ccc(C(F)(F)F)cn34)n2)CC(F)(F)C1 (stereo not shown)
Result: 10 to 100 nM

Q: I'm curious: which IC50 was measured for C[C@H]1C[C@@H](N=S(C)(C)=O)CN(c2ccnc(-c3cnc4ccc(S(C)(=O)=O)cn34)n2)C1 tested on GCN2 kinase (Homo sapiens (Human), UniProt Q9P2K8)?
Result: 100 to 1000 nM

Q: Under GCN2 kinase (Homo sapiens (Human), UniProt Q9P2K8): IC50 value of FC(F)(F)c1ccc2ncc(-c3nccc(N4CCCC5(CNC5)C4)n3)n2c1 ?
Result: 100 to 1000 nM

Q: API: value(readout= IC50, system= GCN2 kinase (Homo sapiens (Human), UniProt Q9P2K8), query= CC(C)n1ccc(C(=O)N2[C@H](C)CN(c3ccnc(-c4cnc5ccc(C(F)(F)F)cn45)n3)C[C@@H]2C)n1 )
Result: 100 to 1000 nM

Q: Param readout = IC50; param system = GCN2 kinase (Homo sapiens (Human), UniProt Q9P2K8); param query = Cc1cnc(N2CCC[C@H](C(N)=O)C2)nc1-c1cnc2ccc(Cl)cn12 ; response: value
Sequence (Q9P2K8 whole entry): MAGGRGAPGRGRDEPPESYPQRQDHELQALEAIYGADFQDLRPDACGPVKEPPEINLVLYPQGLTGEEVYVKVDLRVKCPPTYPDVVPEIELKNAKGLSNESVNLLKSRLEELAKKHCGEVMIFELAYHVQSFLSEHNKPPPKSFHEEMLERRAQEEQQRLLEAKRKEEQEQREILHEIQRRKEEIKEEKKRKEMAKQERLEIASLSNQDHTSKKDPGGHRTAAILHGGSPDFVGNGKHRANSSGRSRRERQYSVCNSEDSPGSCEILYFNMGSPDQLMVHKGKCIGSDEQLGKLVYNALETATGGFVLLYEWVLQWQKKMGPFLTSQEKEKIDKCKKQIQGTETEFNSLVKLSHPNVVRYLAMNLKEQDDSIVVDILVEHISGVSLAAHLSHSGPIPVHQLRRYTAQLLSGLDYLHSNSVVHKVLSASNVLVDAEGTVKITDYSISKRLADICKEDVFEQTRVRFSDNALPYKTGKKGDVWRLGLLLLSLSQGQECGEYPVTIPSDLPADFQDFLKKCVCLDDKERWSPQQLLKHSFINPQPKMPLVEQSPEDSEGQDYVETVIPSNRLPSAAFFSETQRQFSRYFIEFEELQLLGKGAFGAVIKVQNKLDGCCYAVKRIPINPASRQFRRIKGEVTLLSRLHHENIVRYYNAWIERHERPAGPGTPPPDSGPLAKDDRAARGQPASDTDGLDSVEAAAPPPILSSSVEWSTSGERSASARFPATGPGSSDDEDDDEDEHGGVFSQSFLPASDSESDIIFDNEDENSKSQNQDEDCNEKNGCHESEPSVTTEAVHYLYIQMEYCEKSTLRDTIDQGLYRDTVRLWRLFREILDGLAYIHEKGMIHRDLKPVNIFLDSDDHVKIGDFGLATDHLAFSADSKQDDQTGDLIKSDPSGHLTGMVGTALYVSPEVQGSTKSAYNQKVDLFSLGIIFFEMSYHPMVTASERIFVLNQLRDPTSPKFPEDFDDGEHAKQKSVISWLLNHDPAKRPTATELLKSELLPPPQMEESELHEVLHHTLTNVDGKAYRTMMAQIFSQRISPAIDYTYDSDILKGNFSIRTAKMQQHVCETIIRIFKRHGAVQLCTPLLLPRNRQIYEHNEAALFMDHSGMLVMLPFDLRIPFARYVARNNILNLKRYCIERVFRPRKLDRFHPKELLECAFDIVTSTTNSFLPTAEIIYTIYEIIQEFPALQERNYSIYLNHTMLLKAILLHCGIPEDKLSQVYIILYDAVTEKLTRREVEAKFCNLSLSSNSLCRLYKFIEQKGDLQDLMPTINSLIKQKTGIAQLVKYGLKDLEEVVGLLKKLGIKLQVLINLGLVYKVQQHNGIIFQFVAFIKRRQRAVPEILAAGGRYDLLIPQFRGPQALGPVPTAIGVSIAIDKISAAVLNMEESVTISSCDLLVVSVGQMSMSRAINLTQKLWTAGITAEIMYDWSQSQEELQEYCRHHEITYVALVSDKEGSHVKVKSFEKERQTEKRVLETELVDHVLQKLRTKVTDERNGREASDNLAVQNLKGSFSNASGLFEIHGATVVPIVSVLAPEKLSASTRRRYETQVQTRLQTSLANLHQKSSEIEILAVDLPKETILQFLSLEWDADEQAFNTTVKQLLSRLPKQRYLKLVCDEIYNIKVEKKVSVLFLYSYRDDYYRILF
Result: 10 to 100 nM

Q: What value of IC50 on GCN2 kinase (Homo sapiens (Human), UniProt Q9P2K8) does O=C(c1cnoc1)N1CCN(c2ccnc(-c3cnc4ccc(C(F)(F)F)cn34)n2)CC1c1cn[nH]c1 (stereo not shown) have?
Result: 10 to 100 nM

Q: // map CC1CN(c2ccnc(-c3cnc4ccc(C(F)(F)F)cn34)n2)CC(C)N1CC#N (stereo not shown) to recorded IC50 (system: GCN2 kinase (Homo sapiens (Human), UniProt Q9P2K8))
Result: 100 to 1000 nM

Q: Return IC50 measured with GCN2 kinase (Homo sapiens (Human), UniProt Q9P2K8) given this compound: FC1(F)CCCN(c2ccnc(-c3cnc4ccc(C(F)(F)F)cn34)n2)C1
Result: 100 to 1000 nM

Q: Test system GCN2 kinase (Homo sapiens (Human), UniProt Q9P2K8); read-out IC50; what value for O[C@@H]1C[C@H](O)CN(c2ccnc(-c3cnc4ccc(C(F)(F)F)cn34)n2)C1 ?
Result: 10 to 100 nM

Q: Notebook entry, GCN2 kinase (Homo sapiens (Human), UniProt Q9P2K8) assay: IC50 of FC(F)(F)c1ccc2ncc(-c3nccc(N4CCN(C[C@@H]5CC56CCOCC6)[C@@H](c5cn[nH]c5)C4)n3)n2c1 = ?
Result: < 10 nM

Q: Value wanted: IC50 (GCN2 kinase (Homo sapiens (Human), UniProt Q9P2K8)) of entry C[C@@H]1[C@H](CNS(C)(=O)=O)N(C2CC2)CCN1c1nccc(-c2cnc3ccc(C(F)(F)F)cn23)n1
Result: < 10 nM
